target: human PAD4 (Homo sapiens, UniProt Q9UM07); construct: human PAD4 (NM_012387), A2-P663, was PCR amplified; His-SUMO (N, cleaved yes); experiment: In vitro PAD4 BAEE biochemical assay; conditions: BAEE substrate 3 mM, 5 nM PAD4, 2 mM calcium chloride; geometric mean of multiple experiments
Sequence (Q9UM07 2-663): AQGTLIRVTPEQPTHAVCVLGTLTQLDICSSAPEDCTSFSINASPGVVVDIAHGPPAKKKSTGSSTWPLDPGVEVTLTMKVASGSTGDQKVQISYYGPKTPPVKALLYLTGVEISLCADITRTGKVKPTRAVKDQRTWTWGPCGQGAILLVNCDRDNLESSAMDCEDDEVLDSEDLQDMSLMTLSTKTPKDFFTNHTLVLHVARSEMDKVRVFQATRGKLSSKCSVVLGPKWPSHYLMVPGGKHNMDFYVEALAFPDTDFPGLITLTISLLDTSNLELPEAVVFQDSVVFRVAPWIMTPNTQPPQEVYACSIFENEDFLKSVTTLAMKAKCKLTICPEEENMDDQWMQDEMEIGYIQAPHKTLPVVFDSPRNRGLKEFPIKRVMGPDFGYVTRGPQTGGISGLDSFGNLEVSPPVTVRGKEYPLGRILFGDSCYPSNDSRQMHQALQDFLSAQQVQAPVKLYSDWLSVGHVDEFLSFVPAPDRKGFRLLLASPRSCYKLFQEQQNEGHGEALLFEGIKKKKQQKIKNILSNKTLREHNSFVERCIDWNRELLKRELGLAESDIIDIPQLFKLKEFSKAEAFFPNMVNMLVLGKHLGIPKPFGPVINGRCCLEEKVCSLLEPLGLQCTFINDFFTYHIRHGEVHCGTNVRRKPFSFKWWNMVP
quantityName: pIC50
In simple prose, pIC50 is minus the logarithm base ten of a concentration in moles per litre.

[
  {
    "compound": "COc1cc(C(=O)N2[C@H]3CC[C@@H]2[C@H](N)C3)cc2nc(-c3cc4ccc5nc4n3CCCCCCCC(=O)Nc3ccccc3-5)n(C)c12 [Example 93]",
    "pIC50": 6.79
  },
  {
    "compound": "COc1cc(C(=O)N[C@H]2CNCC[C@@H]2F)cc2nc(-c3cc4ccc5nc4n3C/C=C(/F)COCCC(=O)N[C@@H]5C)n(C)c12 [Example 619]",
    "pIC50": 7.42
  },
  {
    "compound": "COc1cc(C(=O)N2CC[C@@H](OCC3CC3)[C@@H](N)C2)cc2nc(-c3cc4ccc5nc4n3CCCCC[C@@H]3C[C@H]3C(=O)N[C@@H]5C)n(C)c12 [Example 490]",
    "pIC50": 7.07
  },
  {
    "compound": "COc1cc(C(=O)N2C[C@H](N)[C@@H]3CC[C@H]2C3)cc2nc(-c3cc4ccc5nc4n3CCCCC[C@H]3[C@H](C(=O)N[C@@H]5C)C3(F)F)n(C3CC3)c12 [Example 930]",
    "pIC50": 7.66
  },
  {
    "compound": "C[C@H]1NC(=O)[C@@H]2C[C@H]2CCCCCn2c(-c3nc4cc(C(=O)N5C[C@H](N)[C@@H]6CC[C@H]5C6)cc(F)c4n3C3CC3)cc3ccc1nc32 [Example 882]",
    "pIC50": 7.66
  }
]

What value of measured pIC50 is listed for COc1cc(C(=O)N2CCC[C@@H](N)C2)cc2nc(-c3cc4ccc5nc4n3CCCC[C@H]3C[C@@H]3C(=O)N[C@@H]5C)n(C)c12 [Example 151] ?
6.91

Please give the result for C[C@H]1NC(=O)C2C[C@H]2CCCCCn2c(-c3nc4cc(C(=O)N[C@H]5CNCC[C@@H]5F)cc(Cl)c4n3C)cc3ccc1nc32 (stereo partly shown) [Example 507] too.
7.49

Please give the result for COc1cc(C(=O)N2C[C@H](N)[C@@H]3CC[C@H]2C3)cc2nc(-c3cc4ccc5cc4n3CCCCCCC(C)(C)C(=O)N[C@@H]5C)n(C)c12 [Example 465] too.
7.64

Please give the result for COc1cc(C(=O)N2CC[C@@H](OC)[C@@H](N)C2)cc2nc(-c3cc4ccc5nc4n3CCCC(F)(F)C[C@@H]3C[C@@H]3C(=O)N[C@@H]5C)n(C)c12 [Example 858] too.
6.34

Please give the result for COc1cc(C(=O)N[C@H]2CNC[C@@H](O)C2)cc2nc(-c3cc4ccc5nc4n3CCCCCCC(C)(C)C(=O)N[C@@H]5C)n(C)c12 [Example 59] too.
6.79

Please give the result for C[C@H]1NC(=O)c2ccccc2CCCCCn2c(-c3nc4cc(C(=O)N[C@H]5CNCC[C@@H]5F)c(F)cc4n3C3CC3)cc3ccc1nc32 [Example 347] too.
7.29

Please give the result for COc1cc(C(=O)N[C@H]2CNCC[C@@H]2F)cc2nc(-c3cc4ccc5nc4n3C[C@@H]3[C@@H](CCCC(C)(C)C(=O)N[C@@H]5C)C3(F)F)n(C)c12 (single isomer, unassigned) [Example 365] too.
6.92

Please give the result for C[C@H]1NC(=O)c2cc3ccccc3nc2CCCCCn2c(-c3nc4cc(C(=O)N5C[C@H](N)[C@@H]6CC[C@H]5C6)c(F)c(F)c4n3C3CC3)cc3ccc1nc32 [Example 754] too.
7.23

Please give the result for COc1cc(C(=O)N2[C@H]3CC[C@@H]2[C@H](N)C3)cc2nc(-c3cc4ccc5nc4n3CCCCOCCC(=O)N[C@@H]5C)c(C)n12 [Example 321] too.
7.49

Please give the result for CO[C@@H]1CCN(C(=O)c2cc(F)c3c(c2)nc(-c2cc4ccc5nc4n2CC(F)(F)CCC[C@@H]2C[C@H]2C(=O)N[C@@H]5C)n3C2C[C@H]2F)C[C@@H]1N (stereo partly shown) [Example 745] too.
7.66

Please give the result for COc1cc(C(=O)N2CC[C@@H](OC(F)F)[C@@H](N)C2)cc2nc(-c3cc4ccc5nc4n3CCCCCc3nccnc3C(=O)N[C@@H]5C)n(C)c12 [Example 7] too.
7.00

====

Let's look at some compounds and their measured log10(IC50).
target: human PAD4 (Homo sapiens, UniProt Q9UM07); construct: human PAD4 (NM_012387), A2-P663, was PCR amplified; His-SUMO (N, cleaved yes); assay: In vitro PAD4 BAEE biochemical assay; conditions: BAEE substrate 3 mM, 5 nM PAD4, 2 mM calcium chloride; geometric mean of multiple experiments
Hey, these are logged values: log10 of IC50, nM being the unit before logging.

[
  {
    "compound": "COc1cc(C(=O)N2CCC[C@@H](N)C2)cc2nc(-c3cc4ccc5nc4n3CC[C@H]3C[C@H]3COCCC(=O)N[C@@H]5C)n(C)c12",
    "numericValue": 1.93
  }
]

What value of measured log10(IC50) is listed for COc1cc(C(=O)N[C@H]2CNCCC2(F)F)cc2nc(-c3cc4ccc5cc4n3CCCCCCC(C)(C)C(=O)N[C@@H]5C)n(C)c12 ?
2.15

Please give the result for COc1cc(C(=O)N2CCC[C@@H](N)C2)cc2nc(-c3cc4ccc5nc4n3CCCCCCOc3ccccc3C(=O)N[C@@H]5C)c(C)n12 too.
2.56

Please give the result for C[C@H]1NC(=O)C(C)(C)CCCCCCn2c(-c3nc4cc(C(=O)N[C@H]5CNCC[C@@H]5F)c(F)cc4n3C)cc3ccc1nc32 too.
1.91

====

Molecular target: human PAD4 (Homo sapiens)
Construct: human PAD4 (NM_012387), A2-P663, was PCR amplified; His-SUMO (N, cleaved yes)
Assay: In vitro PAD4 BAEE biochemical assay
Details: BAEE substrate 3 mM, 5 nM PAD4, 2 mM calcium chloride; geometric mean of multiple experiments
From the text: In Vitro PAD4 BAEE Biochemical Assay The enzymatic activity of human PAD4 was monitored in a biochemical assay in the presence or absence of compounds using the small peptidyl arginine mimic BAEE (Na-Benzoyl-L-arginine ethyl ester hydrochloride) as substrate. PAD4 activity led to deimination of BAEE and release of ammonia. Levels of ammonia were monitored by using an amine coupling reaction and were indicative of PAD4 enzymatic activity. […]
Let's look at some molecules and their measured IC50.
Return type: number; implicit unit nM.

Check out these entries, answers already filled in.
[
  {
    "querySmiles": "COc1cc(C(=O)N2CCC[C@@H](N)C2)cc2nc(-c3cc4ccc5cc4n3CCCCCC[C@@H]3CCN(C3=O)[C@@H]5C)n(C)c12",
    "assaySystem": "human PAD4 (Homo sapiens)",
    "IC50 (nM)": 302
  },
  {
    "querySmiles": "COc1cc(C(=O)N2CCC[C@@H](N)C2)cc2nc(-c3cc4ccc5nc4n3CCCCCC[C@@H]3CCN(C3=O)[C@@H]5C)n(C)c12",
    "assaySystem": "human PAD4 (Homo sapiens)",
    "IC50 (nM)": 81
  }
]

Proceed to the following item.
What value of measured IC50 is listed for CO[C@@H]1CCN(C(=O)c2cc(F)c3c(c2)nc(-c2cc4ccc5nc4n2CCCCCC[C@@H](c2cccc(Cl)n2)C(=O)N[C@@H]5C)n3C2CC2)C[C@@H]1N ?
120

====

Target: human PAD4 (Homo sapiens)
Construct: human PAD4 (NM_012387), A2-P663, was PCR amplified; His-SUMO (N, cleaved yes)
Assay: In vitro PAD4 BAEE biochemical assay
Conditions: BAEE substrate 3 mM, 5 nM PAD4, 2 mM calcium chloride; geometric mean of multiple experiments
Text: In Vitro PAD4 BAEE Biochemical Assay The enzymatic activity of human PAD4 was monitored in a biochemical assay in the presence or absence of compounds using the small peptidyl arginine mimic BAEE (Na-Benzoyl-L-arginine ethyl ester hydrochloride) as substrate. PAD4 activity led to deimination of BAEE and release of ammonia. Levels of ammonia were monitored by using an amine coupling reaction and were indicative of PAD4 enzymatic activity. […]
Let's look at some molecules and their measured pIC50.
In simple prose, pIC50 is minus the logarithm base ten of a concentration in moles per litre.

Check out these entries, answers already filled in.
[
  {
    "molecule": "COc1cc(C(=O)N2CCC[C@@H](N)C2)cc2nc(-c3cc4ccc5nc4n3CCCCCc3cnn(C)c3C(=O)N[C@@H]5C)n(C)c12 [Example 172]",
    "pIC50": 7.00
  },
  {
    "molecule": "COc1cc(C(=O)N2CC[C@H]3CCCN[C@H]3C2)cc2nc(-c3cc4ccc5nc4n3CCCCCCC(C)(C)C(=O)N[C@@H]5C)n(C)c12 (single isomer, unassigned) [Example 261]",
    "pIC50": 6.97
  },
  {
    "molecule": "COc1cc(C(=O)N2CC[C@H]3CCN[C@H]3C2)cc2nc(-c3cc4ccc5nc4n3CCCCCCC(C)(C)C(=O)N[C@@H]5C)n(C)c12 [Example 79]",
    "pIC50": 7.12
  },
  {
    "molecule": "COc1cc(C(=O)N[C@H]2CNC[C@H]3C[C@H]32)cc2nc(-c3cc4ccc5nc4n3CCCCCCC(C)(C)C(=O)N[C@@H]5C)n(C)c12 [Example 203]",
    "pIC50": 6.94
  },
  {
    "molecule": "COc1cc(C(=O)N2[C@H]3CC[C@@H]2[C@H](N)C3)cc2nc(-c3cc4ccc5cc4n3CCCCCC[C@@](C)(OC)C(=O)N[C@@H]5C)n(C)c12 [Example 340]",
    "pIC50": 7.21
  }
]

Proceed to the following item.
What value of measured pIC50 is listed for COc1cc(C(=O)N[C@H]2CNCC[C@@H]2F)cc2nc(-c3cc4ccc5nc4n3CCCCCC(C)(C)C(=O)N[C@@H]5C)n(C)c12 [Example 76] ?
7.06
